System: NCI-H226 lung
Test: NCI tumour cell line growth inhibition, 48 h

molecule | TGI
COC(=O)[C@H](C)NC(=O)C1(CNC(=O)[C@H](C)NC(=O)OC(C)(C)C)Cc2ccccc2-c2ccccc2C1 | 61.5 µM
Cc1cc(Cl)ccc1NC(=O)CC1SC(=NC(=O)c2ccccc2Cl)NC1=O (stereo not drawn) | 75 µM
Cc1ccc(NC(=O)CCc2nnc3s/c(=C\c4cccc([N+](=O)[O-])c4)c(=O)n23)cc1 | > 100 µM
Fc1cc(C2=Nn3c(CNc4ccc(Cl)cc4)nnc3S/C2=C\c2ccc(-c3ccc(Cl)cc3)o2)c(Cl)cc1Cl | > 100 µM
CC[O-].CC[O-].COc1ccc(C(=O)[CH-]C(C)=O)cc1OC.COc1ccc(C(=O)[CH-]C(C)=O)cc1OC.[Ti+4] | > 100 µM
Cn1cnc([N+](=O)[O-])c1Sc1nc2ccccc2o1 | 30.9 µM
Cc1cc(O[C@@H]2O[C@@H](C)[C@H](O)[C@@H](O)[C@H]2O)c2c3c(c(O[C@@H]4O[C@@H](C)[C@H](O)[C@@H](O)[C@H]4O)cc2c1)C(=O)c1c(O)cccc1C3=O | > 30 µM
O=C(O)CCC(=O)Oc1ccc(O)c2c1CCCC2=O | > 100 µM

###

System: HL-60(TB) leukemia
Assay: NCI tumour cell line growth inhibition, 48 h

compound | system.name | TGI
C=CCOC1CC(n2cnc3c(N)ncnc32)OC1CO (stereo not given) | HL-60(TB) leukemia | > 100 µM
Cc1occc1C(=S)Nc1ccc(Cl)c(C(=O)OCC(C)C)c1 | HL-60(TB) leukemia | 79.5 µM
CC(=O)NNc1nc(C)c(C(/C=C/c2ccc(Cl)cc2)=N\N=C(N)N)s1 | HL-60(TB) leukemia | > 100 µM
Cc1nn(C(=O)c2ccc(Cl)cc2)c2c1C(c1ccccc1O)SC(N)=N2 (stereo not given) | HL-60(TB) leukemia | > 10 µM
COc1ccc(C2CC(c3ccc(NS(=O)(=O)c4cc([N+](=O)[O-])ccc4C)cc3)=NN2S(=O)(=O)c2cc([N+](=O)[O-])ccc2C)cc1 (stereo not given) | HL-60(TB) leukemia | > 100 µM

###

Attribute: TGI
Tested on: COLO 205 colon
Test: NCI tumour cell line growth inhibition, 48 h
test.readout: TGI

compound.smiles | result
Cc1cc(O[C@@H]2O[C@@H](C)[C@H](O)[C@@H](O)[C@H]2O)c2c3c(c(O[C@@H]4O[C@@H](C)[C@H](O)[C@@H](O)[C@H]4O)cc2c1)C(=O)c1c(O)cccc1C3=O | > 30 µM
Fc1ccc(Oc2nc3ccccc3nc2-c2ccccc2)cc1 | > 100 µM
CCOC(CN(C)C(=O)Nc1ccc(Cl)c(Cl)c1)OCC | > 10 µM
COc1ccc(N=N/C(=N\NC(=O)c2cc(Br)ccc2O)c2ccc(N(CCC#N)CCC#N)cc2OC)cc1 | > 150 µg/mL

###

System: OVCAR-5 ovarian
Assay: NCI tumour cell line growth inhibition, 48 h

compound.smiles | GI50
Clc1ccc(-c2nc3c(-c4ccccc4)nc(-c4ccccc4)cn3c2-c2ccc(Cl)cc2)cc1 | > 100000 nM
O=c1c2cccc(F)c2sc2c(NCCCNCCO)nc3ccccc3c12 | 1650 nM
CS(=O)(=O)O[C@H]1C(=O)N(c2cc3c4ccccc4ccc3c3ccccc23)[C@@H]1c1ccccn1 | 711 nM
